Test system: Klebsiella pneumoniae
condition-info: Concentration 32 ug.mL-1;; ASSAY_TEST Inhibition of Bacterial Growth; detection method Absorption (OD600); MEDIA CAMHB; plate type 384well; NBS; CORNING #3640; time 18 hr
Description: Antibacterial activity against Klebsiella pneumoniae MDR ATCC 70063 (CO-ADD:GN_003); MIC in CAMBH media using NBS plates, by OD(600)
Results with a measured potency or affinity are listed apart.
observation-type: Inhibition (%)
Give bare numbers, in %.

[[record]]
molecular_string = "CN(C(=O)Cn1nc2n(Cc3cccs3)c(=O)c3sccc3n2c1=O)c1ccccc1"
experimental_target = "Klebsiella pneumoniae"
observation_type = "Inhibition"
quantitative_result = -2.89

[[record]]
molecular_string = "CC(C)c1nnc2c(=O)n(CC(=O)Nc3ccc(C#N)cc3)c3ccccc3n12"
experimental_target = "Klebsiella pneumoniae"
observation_type = "Inhibition"
quantitative_result = 6.44


Dear colleague, could you send me Inhibition for each of the items below? Thanks.
1. CCc1ccc(N(Cc2cccc(Cl)c2)S(=O)(=O)c2cccn3c(C)nnc23)cc1
2. O=C(Cn1nc2c(Oc3ccccc3)nccn2c1=O)Nc1ccc2c(c1)OCO2

[7.34, 4.55]

###

System: Cryptococcus neoformans
condition-info: Concentration 32 ug.mL-1; ASSAY_TEST Inhibition of Fungal Growth; detection method Resazurin; Absorption (OD600-OD570); plate type 384well; NBS; CORNING #3640
Description: Antifungal activity against Cryptococcus neoformans H99 ATCC 208821 (CO-ADD:FG_002); MIC in YNB media using NBS plates, by Resazurin OD(600-570)
Potency and affinity values are given separately.
Please go through the items and note down their Inhibition.
One number for each entry, in %.

Recorded results for 3 compounds are shown here.
[[record]]
molecular_string = "COc1cccc(CNC(=O)CSc2nnc3ccc(C(=O)Nc4cccc(F)c4)cn23)c1"
experimental_target = "Cryptococcus neoformans"
quantitative_result = -5.04

[[record]]
molecular_string = "CSc1cccc(NC(=O)Cn2nc3c(Sc4cccc(F)c4)nccn3c2=O)c1"
experimental_target = "Cryptococcus neoformans"
quantitative_result = -2.39

[[record]]
molecular_string = "O=c1n(Cc2cccc(C(F)(F)F)c2)nc2ccc(S(=O)(=O)N3CCCCC3)cn12"
experimental_target = "Cryptococcus neoformans"
quantitative_result = -10.55


Dear colleague, could you send me Inhibition for each of the items below? Thanks.
1. COc1ccccc1CNC(=O)Cn1nc2c(N3CCC(C)CC3)nccn2c1=O
2. CC(C)c1ccc(Cn2c(=O)c3sccc3n3c(SCc4cccc(C(F)(F)F)c4)nnc23)cc1
3. Cc1nnc2c(S(=O)(=O)N(Cc3ccccc3F)c3ccc(C(C)C)cc3)cccn12

1: -8.45; 2: -12.8; 3: -4.75

The compound listed as CC(C)Cn1c(=O)c2sccc2n2c(=O)n(CC(N)=O)nc12 has a reported Inhibition of -19.03

###

Test system: Cryptococcus neoformans
condition-info: Concentration 32 ug.mL-1; ASSAY_TEST Inhibition of Fungal Growth; detection method Resazurin; Absorption (OD600-OD570); plate type 384well; NBS; CORNING #3640
Potency and affinity values are given separately.
observation-type: Inhibition (%)
Give bare numbers, in %.

Recorded results for 2 compounds are shown here.
[[record]]
molecular_string = "CSc1cccc(NC(=O)Cn2nc3ccc(C(=O)NCc4ccccc4)cn3c2=O)c1"
experimental_target = "Cryptococcus neoformans"
quantitative_result = -20.24

[[record]]
molecular_string = "COc1ccc(NC(=O)Cn2nc3ccc(-c4ccc(C)c(C)c4)nn3c2=O)cc1OC"
experimental_target = "Cryptococcus neoformans"
quantitative_result = -43


We next turn to a different compound, shown below.
Simply: COc1ccccc1-n1ccn2c(SCc3cccc(F)c3)nnc2c1=O , Cryptococcus neoformans, Inhibition = -9.16

###

Tested on: Candida albicans
condition-info: Concentration 32 ug.mL-1; ASSAY_TEST Inhibition of Fungal Growth; detection method Absorption (OD530)
Description: Antifungal activity against Candida albicans ATCC 90028 (CO-ADD:FG_001); MIC in YNB media using NBS plates, by OD630
Entries with a potency or affinity are not part of this list.
observation-type: Inhibition (%)
Answers are plain numbers, in %.

Recorded results for 4 compounds are shown here.
[[record]]
molecular_string = "O=C(CSc1nnc2c(=O)n(-c3ccc(F)cc3)ccn12)N1CCN(c2ccccc2F)CC1"
experimental_target = "Candida albicans"
observation_type = "Inhibition"
quantitative_result = 5.18

[[record]]
molecular_string = "O=C(Cn1nc2n(CCc3ccccc3)c(=O)c3ccccc3n2c1=O)Nc1ccc2c(c1)OCO2"
experimental_target = "Candida albicans"
observation_type = "Inhibition"
quantitative_result = 15.71

[[record]]
molecular_string = "COc1ccc(-c2cc3c4nn(CC(=O)Nc5ccccc5OC)c(=O)n4ccn3n2)cc1"
experimental_target = "Candida albicans"
observation_type = "Inhibition"
quantitative_result = 0.94

[[record]]
molecular_string = "Cn1c(=O)c2sccc2n2c(=O)n(CCOc3ccccc3)nc12"
experimental_target = "Candida albicans"
observation_type = "Inhibition"
quantitative_result = -1.1


Dear colleague, could you send me Inhibition for each of the items below? Thanks.
1. CC(C)c1ccc(NC(=O)Cn2nc3ccc(SCc4ccc(Cl)cc4)nn3c2=O)cc1
2. COc1ccc(C(=O)CSc2nnc3c(=O)n(-c4ccc(F)c(F)c4)ccn23)cc1
3. Cc1cccc(NC(=O)Cn2nc3ccc(-c4ccc(Cl)cc4)nn3c2=O)c1
4. COc1ccc(-c2cc3c4nn(CC(=O)Nc5ccc(F)cc5)c(=O)n4ccn3n2)cc1
5. COc1cccc(-n2ccn3c(-c4ccc([N+](=O)[O-])cc4)nnc3c2=O)c1

1: 14.48; 2: 2.03; 3: 3.82; 4: 15.17; 5: 1.66

Dear colleague, could you send me Inhibition for each of the items below? Thanks.
1. CCCCN(CC)c1ccc2nnc(CCc3nc(-c4ccc5c(c4)OCO5)no3)n2n1
2. COc1ccc(-c2cc3c4nnc(CCC(=O)NCc5ccc(OC)cc5OC)n4ccn3n2)cc1
3. Cc1cccc(NC(=O)Cn2nc3c(Sc4ccccc4)nccn3c2=O)c1

3.29
2.37
0.01

Dear colleague, could you send me Inhibition for each of the items below? Thanks.
1. CCc1cccc(NC(=O)Cn2c(=O)c3nnc(C(C)C)n3c3ccccc32)c1
2. Cc1cc2nn(CC(=O)NCc3ccccc3)c(=O)n2c(Nc2ccc(C)c(F)c2)n1

1: 1.02; 2: 6.49

###

Tested on: Candida albicans
condition-info: Concentration 32 ug.mL-1; ASSAY_TEST Inhibition of Fungal Growth; detection method Absorption (OD530)
Potency and affinity values are given separately.
observation-type: Inhibition (%)
Give bare numbers, in %.

Recorded results for 3 molecules are shown here.
[[record]]
molecular_string = "COc1cccc(-n2ccn3c(SCc4ccc(Cl)cc4)nnc3c2=O)c1"
experimental_target = "Candida albicans"
observation_type = "Inhibition"
quantitative_result = 2.03

[[record]]
molecular_string = "O=C(Cn1nc2c3c4c(sc3ncn2c1=O)CCCC4)NCc1ccc(F)cc1"
experimental_target = "Candida albicans"
observation_type = "Inhibition"
quantitative_result = 15.82

[[record]]
molecular_string = "CC(C)c1ccc(N(Cc2ccccc2)S(=O)(=O)c2cccn3cnnc23)cc1"
experimental_target = "Candida albicans"
observation_type = "Inhibition"
quantitative_result = 6.69


Dear colleague, could you send me Inhibition for each of the items below? Thanks.
1. COCCCNC(=O)CSc1nnc2c(=O)n(Cc3ccc(F)cc3)ccn12
2. Cc1cccc(Oc2nccn3c(=O)n(CC(=O)Nc4ccccc4C(F)(F)F)nc23)c1C
3. CCc1ccccc1NC(=O)Cn1nc2cc(C)nc(Nc3ccc(F)c(C)c3)n2c1=O
4. O=C(Cn1nc2c(N3CCOCC3)nccn2c1=O)NCc1ccc(F)cc1
5. CCOc1ccc(-n2ccn3c(SCC(=O)Nc4ccc(F)cc4F)nnc3c2=O)cc1
6. COc1ccc(-c2cc3c4nnc(SCC(=O)Nc5cc(F)ccc5C)n4ccn3n2)cc1

1: 2.6; 2: -0.97; 3: 5.42; 4: 2.87; 5: 3.41; 6: 1.81

###

Please go through the items and note down their Inhibition.
System: Candida albicans
condition-info: Concentration 32 ug.mL-1; ASSAY_TEST Inhibition of Fungal Growth; detection method Absorption (OD530)
Potency and affinity values are given separately.
Numbers only, in %.

[[record]]
compound = "CCOc1ccccc1NC(=O)Cn1nc2c(Oc3cccc(OC)c3)nccn2c1=O"
experimental_target = "Candida albicans"
quantitative_result = 0.7

[[record]]
compound = "O=c1c2nn(Cc3cccc(F)c3)c(=O)n2ccn1-c1ccccc1"
experimental_target = "Candida albicans"
quantitative_result = 1.62

[[record]]
compound = "NC(=O)CSc1nnc2c(=O)n(-c3ccc(F)cc3)ccn12"
experimental_target = "Candida albicans"
quantitative_result = 2.37

[[record]]
compound = "COc1ccc(N2CCN(C(=O)Cn3nc4c(Oc5ccccc5)nccn4c3=O)CC2)cc1"
experimental_target = "Candida albicans"
quantitative_result = 1.75

[[record]]
compound = "CC(C)c1nnc2c(SCC(=O)Nc3cccc(Cl)c3)nc3ccccc3n12"
experimental_target = "Candida albicans"
quantitative_result = 2.12

[[record]]
compound = "COc1ccc(NC(=O)Cn2nc3c(Sc4cccc(C)c4)nccn3c2=O)cc1Cl"
experimental_target = "Candida albicans"
quantitative_result = 12.08

[[record]]
compound = "CCOc1ccccc1NC(=O)Cn1nc2c(Sc3cccc(C)c3)nccn2c1=O"
experimental_target = "Candida albicans"
quantitative_result = 0.35

[[record]]
compound = "CCc1ccccc1Sc1nccn2c(=O)n(CC(=O)Nc3cccc(C)c3)nc12"
experimental_target = "Candida albicans"
quantitative_result = -0.7


Dear colleague, could you send me Inhibition for each of the items below? Thanks.
1. O=C(Cn1nc2nc(Nc3ccc(F)cc3)ccn2c1=O)NCc1ccc(F)cc1Cl
2. CC(C)c1nnc2c(SCC(=O)Nc3ccccc3F)nc3ccccc3n12
3. COc1cccc(-n2ccn3c(SCc4ccc(C)cc4)nnc3c2=O)c1

1: 1.62; 2: 2.9; 3: 3.44

Dear colleague, could you send me Inhibition for each of the items below? Thanks.
1. CCC(C)NC(=O)Cn1nc2ccc(SCc3ccc(Cl)cc3)nn2c1=O (stereo not drawn)
2. CCc1nnc2c(S(=O)(=O)N(Cc3cccc(F)c3)c3ccc(F)cc3)cccn12
3. COc1cccc(CN(c2ccc(Cl)cc2)S(=O)(=O)c2ccc3nncn3c2)c1
4. Cc1ccccc1CSc1nnc2c(=O)n(-c3ccc(F)c(F)c3)ccn12
5. CCc1nnc2c(SCC(=O)Nc3ccc(C(=O)OC)cc3)nc3ccccc3n12
6. Cc1cc(C)c(NC(=O)Cn2nc3c(N4CCCC(C)C4)nccn3c2=O)c(C)c1 (stereo not drawn)
7. N#Cc1ccc(NC(=O)Cn2nc3c(Oc4ccccc4)nccn3c2=O)cc1

[3.51, 1.06, 2.49, 4.14, 4.91, -1.23, 0.35]
